Property: T/C; scope: individual compounds
system: L1210; test: In vivo median survival time of treated vs untreated mice x 100 against murine L1210 leukemia cells after iv treatment on day 1 after tumor iv transplant; format: functional, Mus musculus

• Cl.Cn1cc(NC(=O)c2cc(NC(=O)c3cc(NC(=O)/C=C/c4ccc(N(CCCl)CCCl)cc4)cn3C)cn2C)cc1C(=O)NCCC(=N)N = 267%
• Cl.Cn1cc(NC(=O)c2cc(NC(=O)c3cc(NC(=O)c4cc5cc(NC(=O)c6ccc(N(CCCl)CCCl)cc6)ccc5n4C)cn3C)cn2C)cc1C(=O)NCCC(=N)N = 183%
• C=C(Br)C(=O)Nc1cc(C(=O)Nc2cc(C(=O)Nc3cc(C(=O)Nc4cc(C(=O)NCCC(=N)N)n(C)c4)n(C)c3)n(C)c2)n(C)c1.Cl = 200%
• Cl.Cn1cc(NC(=O)c2cc(NC(=O)c3cc(NC(=O)c4cc5cc(N(CCCl)CCCl)ccc5o4)cn3C)cn2C)cc1C(=O)NCCC(=N)N = 200%
• C=C(Br)C(=O)Nc1ccc2oc(C(=O)Nc3cc(C(=O)Nc4cc(C(=O)Nc5cc(C(=O)NCCC(=N)N)n(C)c5)n(C)c4)n(C)c3)cc2c1.Cl = 117%

Here is the next item to consider.
Data request: Consider the compound Cl.Cn1cc(NC(=O)c2cc(NC(=O)c3cc(NC(=O)c4cc5cc(NC(=O)c6ccc(N(CCCl)CCCl)cc6)ccc5o4)cn3C)cn2C)cc1C(=O)NCCC(=N)N and give its measured T/C.
Data returned: 150%

###

molecular target: Estrogen receptor (Homo sapiens, UniProt Q92731+P03372); assay: Tested for 50% inhibition of generation of Human estrogen receptor polymerase chain reaction(PCR) products; type: protein assay
The label met is reserved for IC50 strictly under 5 nM; not met covers values equal to or above it.

* Cl.Cn1cc(NC(=O)c2cc(NC(=O)c3cc(NC(=O)c4cc5cc(N(CCCl)CCCl)ccc5[nH]4)cn3C)cn2C)cc1C(=O)NCCC(=N)N | met
* Cl.Cn1cc(NC(=O)c2cc(NC(=O)c3cc(NC(=O)c4cc5cc(N(CCCl)CCCl)ccc5n4C)cn3C)cn2C)cc1C(=O)NCCC(=N)N | met

Data request: Find out if reported IC50 for Cl.Cn1cc(NC(=O)c2cc(NC(=O)c3cc(NC(=O)c4cc5cc(N(CCCl)CCCl)ccc5o4)cn3C)cn2C)cc1C(=O)NCCC(=N)N is less than 5 nM
Data returned: met

Data request: Find out if reported IC50 for Cl.Cn1cc(NC(=O)c2cc(NC(=O)c3cc(NC(=O)c4cc5cc(NC(=O)c6ccc(N(CCCl)CCCl)cc6)ccc5[nH]4)cn3C)cn2C)cc1C(=O)NCCC(=N)N is less than 5 nM
Data returned: not met

Data request: Find out if reported IC50 for Cn1cc(NC(=O)c2cc(NC(=O)c3cc(NC=O)cn3C)cn2C)cc1C(=O)NCCC(=N)N [STALLIMYCIN] is less than 5 nM
Data returned: not met

###

tested on: L1210; assay: In vivo median survival time of treated vs untreated mice x 100 against murine L1210 leukemia cells after iv treatment on day 1 after tumor iv transplant; type: functional, Mus musculus
Property: T/C; scope: individual compounds
Supply the numeric figure in %, leaving out any unit text.

Record excerpt, results attached:
* Cl.Cn1cc(NC(=O)c2cc(NC(=O)c3cc(NC(=O)c4ccc(N(CCCl)CCCl)cc4)cn3C)cn2C)cc1C(=O)NCCC(=N)N [TALLIMUSTINE CHLORIDE] | 133
* C=C(Br)C(=O)Nc1ccc2[nH]c(C(=O)Nc3cc(C(=O)Nc4cc(C(=O)Nc5cc(C(=O)NCCC(=N)N)n(C)c5)n(C)c4)n(C)c3)cc2c1.Cl | 213

Here is the next item to consider.
Data request: Fill in the recorded T/C for this compound, with L1210 as test system: C=C(Br)C(=O)Nc1ccc2c(c1)cc(C(=O)Nc1cc(C(=O)Nc3cc(C(=O)NCCC(=N)N)n(C)c3)n(C)c1)n2C.Cl
Data returned: 133
